target: DYRK1B (human) (UniProt Q9Y463); experiment: radiometric filter-binding kinase assay, Kinase HotSpot; conditions: compound 0.5 µM; ATP 10 µM
Sequence (Q9Y463 whole entry, looked up): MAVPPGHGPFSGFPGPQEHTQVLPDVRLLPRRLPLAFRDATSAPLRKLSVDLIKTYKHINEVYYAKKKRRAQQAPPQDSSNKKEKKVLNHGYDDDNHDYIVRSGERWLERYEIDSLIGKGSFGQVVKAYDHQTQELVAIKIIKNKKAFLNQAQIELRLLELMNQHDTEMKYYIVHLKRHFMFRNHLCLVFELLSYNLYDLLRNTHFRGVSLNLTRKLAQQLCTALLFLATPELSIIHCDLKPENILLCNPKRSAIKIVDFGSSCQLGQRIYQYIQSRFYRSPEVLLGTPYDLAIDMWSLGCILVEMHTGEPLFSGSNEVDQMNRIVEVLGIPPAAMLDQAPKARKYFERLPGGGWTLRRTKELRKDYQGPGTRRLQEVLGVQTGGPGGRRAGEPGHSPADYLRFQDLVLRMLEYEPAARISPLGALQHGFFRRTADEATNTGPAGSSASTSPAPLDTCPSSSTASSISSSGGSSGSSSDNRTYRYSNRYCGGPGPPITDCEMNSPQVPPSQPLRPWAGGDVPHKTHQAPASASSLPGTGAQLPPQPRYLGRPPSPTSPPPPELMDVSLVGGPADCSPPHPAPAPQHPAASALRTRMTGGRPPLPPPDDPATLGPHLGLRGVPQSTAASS
value.kind: residual activity (%)

| input.smiles | display.unit | observed |
| --- | --- | --- |
| COc1ccc2c(c1)c(C1=C(c3c[nH]c4ccccc34)C(=O)NC1=O)cn2CCCN(C)C | % | 80 |
| CN(C)S(=O)(=O)c1ccc2c(c1)/C(=C/c1cc3c([nH]1)CCCC3)C(=O)N2 | % | 93.6 |
| NCCNc1ncc(C(N)=O)c(Nc2cccc(C(F)(F)F)c2)n1 | % | 85.9 |
| NC(=O)c1cccc(-c2cc(Nc3ccc(OC(F)(F)F)cc3)ncn2)c1 | % | 97.9 |
| Cn1c2ccccc2c2c3c(c4c5ccccc5n(CCC#N)c4c21)CNC3=O | % | 25.6 |

---

target: MAPK1 (human); assay: radiometric filter-binding kinase assay, Kinase HotSpot; conditions: compound 0.5 µM; ATP 10 µM
Catalogue of residual activity values

| input.smiles | residual activity / % |
| --- | --- |
| COc1ccc(S(=O)(=O)N(CCO)c2ccccc2CN(C)C/C=C/c2ccc(Cl)cc2)cc1 | 97 |
| COc1ccc2c(c1)c(C1=C(c3c[nH]c4ccccc34)C(=O)NC1=O)cn2CCCN(C)C | 102 |
| O=C(c1cc2cc(O)ccc2[nH]1)c1cc2cc(O)ccc2[nH]1 | 113 |

---

target: HCK (human) (UniProt P08631); assay: radiometric filter-binding kinase assay, Kinase HotSpot; settings: compound 0.5 µM; ATP 10 µM
Sequence (P08631 whole entry, looked up): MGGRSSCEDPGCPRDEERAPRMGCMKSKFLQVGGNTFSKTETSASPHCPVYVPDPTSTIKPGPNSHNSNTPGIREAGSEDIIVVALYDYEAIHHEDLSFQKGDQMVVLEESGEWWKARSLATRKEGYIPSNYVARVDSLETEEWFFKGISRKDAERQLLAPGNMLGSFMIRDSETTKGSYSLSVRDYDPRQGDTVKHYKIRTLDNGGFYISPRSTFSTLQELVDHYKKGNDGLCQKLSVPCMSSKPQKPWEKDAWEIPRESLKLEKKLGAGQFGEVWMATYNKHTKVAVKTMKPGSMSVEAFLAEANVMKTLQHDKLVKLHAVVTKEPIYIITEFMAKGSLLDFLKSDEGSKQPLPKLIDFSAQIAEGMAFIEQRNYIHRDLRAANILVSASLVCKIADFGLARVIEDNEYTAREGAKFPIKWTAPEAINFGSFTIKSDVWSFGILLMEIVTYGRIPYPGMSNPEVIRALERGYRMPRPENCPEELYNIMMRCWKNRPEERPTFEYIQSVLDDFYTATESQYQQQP
Quick rule for you: residual activity at 90% or higher means 1, lower means -1.

| input.smiles | answer.label |
| --- | --- |
| NC(=O)c1cccc(-c2cc(Nc3ccc(OC(F)(F)F)cc3)ncn2)c1 | 1 |
| CS(=O)(=O)CCNCc1ccc(-c2ccc3ncnc(Nc4ccc(OCc5cccc(F)c5)c(Cl)c4)c3c2)o1 | -1 |
| N#C/C(=C\c1ccc(O)c(O)c1)C(=O)NCc1ccccc1 | 1 |
| COc1ccc2c(c1)c(C1=C(c3c[nH]c4ccccc34)C(=O)NC1=O)cn2CCCN(C)C | 1 |
| CN(C)c1ccc(/C=C2\C(=O)Nc3ccccc32)cc1 | 1 |
| CN(C)S(=O)(=O)c1ccc2c(c1)/C(=C/c1cc3c([nH]1)CCCC3)C(=O)N2 | -1 |
| COc1ccc(Cl)cc1NC(=O)Nc1cc(C)nc2ccccc12 | 1 |
| COc1cc(Nc2c(C#N)cnc3cc(OCCCN4CCN(C)CC4)c(OC)cc23)c(Cl)cc1Cl | -1 |
| COc1ccc(S(=O)(=O)N(CCO)c2ccccc2CN(C)C/C=C/c2ccc(Cl)cc2)cc1 | 1 |

---

// values below are reported residual activity
biological target: INSRR (human); experiment: radiometric filter-binding kinase assay, Kinase HotSpot; details: compound 0.5 µM; ATP 10 µM
value.kind: residual activity (%)

| input.smiles | display.unit | observed |
| --- | --- | --- |
| COc1cc2ncnc(Nc3ccc(OCc4ccccc4)cc3)c2cc1OC | % | 99.9 |
| CN(C)CCCn1cc(C2=C(c3c[nH]c4ccccc34)C(=O)NC2=O)c2ccccc21 | % | 91.3 |
| O=C1Nc2ccc(Br)cc2/C1=C\c1cc2c([nH]1)CCCC2 | % | 94.8 |
| Cc1cncc2cccc(S(=O)(=O)N3CCCN(C(=O)CN)C[C@H]3C)c12 | % | 103 |
| O=C(c1cc2cc(O)ccc2[nH]1)c1cc2cc(O)ccc2[nH]1 | % | 97.1 |
| COc1ccc(Cl)cc1NC(=O)Nc1cc(C)nc2ccccc12 | % | 100 |
| Ic1cccc(CSc2nnc(-c3ccncc3)o2)c1 | % | 98 |
| O=C1c2ccccc2-c2nc3nnnn3nc21 | % | 86.7 |
| CC(C)(C)c1cc(C=C(C#N)C#N)cc(Br)c1O | % | 103 |
| NC(=O)c1cccc(-c2cc(Nc3ccc(OC(F)(F)F)cc3)ncn2)c1 | % | 90.7 |
| N#Cc1c[nH]c2c[nH]/c(=N\Cc3cccnc3)cc2/c1=N\c1ccc(F)c(Cl)c1 | % | 97 |
